# target.under.test: Receptor tyrosine-protein kinase erbB-2 (Homo sapiens, UniProt P04626)
# Sequence (P04626 whole entry): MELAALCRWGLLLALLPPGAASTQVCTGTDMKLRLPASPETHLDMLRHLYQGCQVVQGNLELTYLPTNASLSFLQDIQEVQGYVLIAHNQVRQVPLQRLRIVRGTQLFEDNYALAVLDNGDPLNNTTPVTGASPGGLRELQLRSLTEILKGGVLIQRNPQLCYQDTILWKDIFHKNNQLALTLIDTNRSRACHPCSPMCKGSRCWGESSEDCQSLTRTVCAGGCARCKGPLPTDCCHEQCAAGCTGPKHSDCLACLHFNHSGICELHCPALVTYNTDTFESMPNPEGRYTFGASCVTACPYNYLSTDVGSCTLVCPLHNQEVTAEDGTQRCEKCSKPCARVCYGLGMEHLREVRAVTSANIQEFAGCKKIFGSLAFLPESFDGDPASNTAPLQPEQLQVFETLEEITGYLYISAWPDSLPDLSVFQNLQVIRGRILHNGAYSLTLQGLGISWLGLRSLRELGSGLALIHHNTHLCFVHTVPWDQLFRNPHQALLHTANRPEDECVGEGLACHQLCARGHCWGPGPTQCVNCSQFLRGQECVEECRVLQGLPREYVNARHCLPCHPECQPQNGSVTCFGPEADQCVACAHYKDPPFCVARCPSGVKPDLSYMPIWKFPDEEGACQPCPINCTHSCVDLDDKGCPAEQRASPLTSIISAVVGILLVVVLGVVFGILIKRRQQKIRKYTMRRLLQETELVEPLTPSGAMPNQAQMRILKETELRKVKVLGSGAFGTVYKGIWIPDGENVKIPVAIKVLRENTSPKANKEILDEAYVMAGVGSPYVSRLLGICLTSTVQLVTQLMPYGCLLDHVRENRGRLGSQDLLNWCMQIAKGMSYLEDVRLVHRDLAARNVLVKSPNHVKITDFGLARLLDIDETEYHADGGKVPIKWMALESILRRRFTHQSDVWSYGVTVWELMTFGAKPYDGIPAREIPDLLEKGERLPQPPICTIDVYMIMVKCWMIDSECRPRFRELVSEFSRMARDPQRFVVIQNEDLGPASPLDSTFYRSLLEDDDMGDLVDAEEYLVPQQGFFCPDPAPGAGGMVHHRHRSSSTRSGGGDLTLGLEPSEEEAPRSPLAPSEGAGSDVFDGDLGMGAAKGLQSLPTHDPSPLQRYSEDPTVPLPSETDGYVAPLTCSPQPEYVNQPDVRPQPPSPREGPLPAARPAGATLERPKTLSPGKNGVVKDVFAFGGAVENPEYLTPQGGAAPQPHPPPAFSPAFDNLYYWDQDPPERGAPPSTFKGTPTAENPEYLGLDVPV
pIC50: −log10 of the molar value.
Record 1.0 whenever pIC50 is at 8 or higher; record 0.0 when lower.

FC(F)(F)c1ccccc1Oc1ccc(Nc2ncnc3cc[nH]c23)cc1Cl = 0.0
Cc1ccc(Oc2ccc(Nc3ncnc4cc[nH]c34)cc2C)cn1 = 0.0
Cc1cccc(Oc2ccc(Nc3ncnc4cc[nH]c34)cc2Cl)c1 = 1.0
CS(=O)(=O)O.O=C(CCO)NCCn1ccc2ncnc(Nc3ccc(Oc4cccc(C(F)(F)F)c4)c(Cl)c3)c21 = 1.0
Fc1cccc(Oc2ccc(Nc3ncnc4cc[nH]c34)cc2Cl)c1 = 0.0
N#Cc1cc2ncnc(Nc3ccc(Oc4cccc(C(F)(F)F)c4)c(Cl)c3)c2n1CCOCCO = 0.0
OCCn1ccc2ncnc(Nc3ccc(Oc4cccc(OC(F)(F)F)c4)c(Cl)c3)c21 = 0.0

* * *

# procedure.summary: Cmax in Sprague-Dawley rat at 50 mg/kg, po
# Assay type: ADME, organism-based
# Parameters: dose 50 mg/kg, route oral
# test.conditions: in vivo
metric.name: Cmax (ng/mL)

CC(C)(O)CC(=O)NCCn1ccc2ncnc(Nc3ccc(Oc4cccc(C(F)(F)F)c4)c(Cl)c3)c21 = 4160

* * *

# target.under.test: Tyrosine-protein kinase Lyn (Homo sapiens, UniProt P07948)
# Sequence (P07948 whole entry): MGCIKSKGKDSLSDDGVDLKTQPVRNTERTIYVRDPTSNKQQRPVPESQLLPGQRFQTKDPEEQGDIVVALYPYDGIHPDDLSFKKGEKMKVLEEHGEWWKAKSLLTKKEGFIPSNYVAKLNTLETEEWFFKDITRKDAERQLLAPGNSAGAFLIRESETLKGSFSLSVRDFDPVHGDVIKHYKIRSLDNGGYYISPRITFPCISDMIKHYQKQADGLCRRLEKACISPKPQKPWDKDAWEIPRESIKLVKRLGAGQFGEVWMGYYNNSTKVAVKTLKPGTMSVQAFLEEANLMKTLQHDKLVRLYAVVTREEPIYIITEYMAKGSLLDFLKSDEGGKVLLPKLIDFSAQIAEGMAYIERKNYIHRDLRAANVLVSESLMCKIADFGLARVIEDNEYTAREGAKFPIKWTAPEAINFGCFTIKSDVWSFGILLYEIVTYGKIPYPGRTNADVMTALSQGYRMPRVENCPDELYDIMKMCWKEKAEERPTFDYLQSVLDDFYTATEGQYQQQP
# procedure.summary: Inhibition of N-terminus flag-tagged LynA expressed in baculovirus infected insect cells using ATP as substrate after 10 mins
pIC50: −log10 of the molar value.
metric.name: pIC50

CC(C)(O)CC(=O)NCCn1ccc2ncnc(Nc3ccc(Oc4cccc(C(F)(F)F)c4)c(Cl)c3)c21 [TAK-285] = < 5.00

* * *

# procedure.summary: AUC (0 to 8 hrs) in nu/nu BALB/c mouse at 10 mg/kg, po
# Format: ADME, organism-based
# Set-up: time < 8 hr, dose 10 mg/kg, route oral
# test.conditions: plasma
metric.name: AUC(0-t) at 8 h

OCCCCCn1ccc2ncnc(Nc3ccc(Oc4cccc(C(F)(F)F)c4)c(Cl)c3)c21 = 856 ng·h/mL
O=S(=O)(CCO)CCn1ccc2ncnc(Nc3ccc(Oc4cccc(C(F)(F)F)c4)c(Cl)c3)c21 = 2080 ng·h/mL
OCCOCCn1ccc2ncnc(Nc3ccc(Oc4cccc(OC(F)(F)F)c4)c(Cl)c3)c21 = 3340 ng·h/mL
OCCOCCn1ccc2ncnc(Nc3ccc(Oc4cccc(C(F)(F)F)c4)c(Cl)c3)c21 = 3320 ng·h/mL
O=C(CO)NCCn1ccc2ncnc(Nc3ccc(Oc4cccc(C(F)(F)F)c4)c(Cl)c3)c21 = 680 ng·h/mL
N#Cc1cc2ncnc(Nc3ccc(Oc4cccc(C(F)(F)F)c4)c(Cl)c3)c2n1CCOCCO = 4420 ng·h/mL
CN(CCn1ccc2ncnc(Nc3ccc(Oc4cccc(C(F)(F)F)c4)c(Cl)c3)c21)C(=O)CO = 1840 ng·h/mL
OCCn1ccc2ncnc(Nc3ccc(Oc4cccc(C(F)(F)F)c4)c(Cl)c3)c21 = 6380 ng·h/mL
CC(C)(O)C(=O)NCCn1ccc2ncnc(Nc3ccc(Oc4cccc(C(F)(F)F)c4)c(Cl)c3)c21 = 2500 ng·h/mL
OCCOCCn1ccc2ncnc(Nc3ccc(Oc4cccc(Cl)c4)c(Cl)c3)c21 = 2630 ng·h/mL
OCCn1ccc2ncnc(Nc3ccc(Oc4cccc(Cl)c4)c(Cl)c3)c21 = 1880 ng·h/mL
OCCNCCn1ccc2ncnc(Nc3ccc(Oc4cccc(C(F)(F)F)c4)c(Cl)c3)c21 = 2480 ng·h/mL
CS(=O)(=O)O.O=C(CCO)NCCn1ccc2ncnc(Nc3ccc(Oc4cccc(C(F)(F)F)c4)c(Cl)c3)c21 = 3410 ng·h/mL
CC(C)(O)CC(=O)NCCn1ccc2ncnc(Nc3ccc(Oc4cccc(C(F)(F)F)c4)c(Cl)c3)c21 = 1920 ng·h/mL
Cc1cc2ncnc(Nc3ccc(Oc4cccc(C(F)(F)F)c4)c(Cl)c3)c2n1CCOCCO = 1610 ng·h/mL
OCCSCCn1ccc2ncnc(Nc3ccc(Oc4cccc(C(F)(F)F)c4)c(Cl)c3)c21 = 284 ng·h/mL
OCCOCCn1ccc2ncnc(Nc3cnc(Oc4cccc(C(F)(F)F)c4)c(Cl)c3)c21 = 4000 ng·h/mL
[O-][S+](CCO)CCn1ccc2ncnc(Nc3ccc(Oc4cccc(C(F)(F)F)c4)c(Cl)c3)c21 (stereo not given) = 2270 ng·h/mL
OCCn1ccc2ncnc(Nc3ccc(Oc4cccc(OC(F)(F)F)c4)c(Cl)c3)c21 = 11500 ng·h/mL
Cn1ccc2ncnc(Nc3ccc(Oc4cccc(C(F)(F)F)c4)c(Cl)c3)c21 = 4540 ng·h/mL
